Source listed as PubChem BioAssay (NCI).

# Test system: UACC-62 melanoma
# Assay Procedure: NCI tumour cell line growth inhibition, 48 h
Item-by-item account of TGI
Parameter Measured: TGI

>>> measured("CCS(=O)(=O)Nc1ccc(Oc2ccc(F)cc2F)c(-c2cn(C)c(=O)c3[nH]ccc23)c1")
"6.28 µM"
>>> measured("O=C1NC(N2CCCC(CO)C2)=N/C1=C\\c1ccc(O)cc1 (configuration not stated)")
"> 100 µM"
>>> measured("C#Cc1cccc(NC(=O)Nc2cccc(NC(=O)CCl)c2)c1")
"> 82.5 µM"
>>> measured("c1ccc(C2(c3cc4ccccc4[nH]3)OCCO2)cc1")
"> 100 µM"
>>> measured("CC(=O)OC1C(OC/C2=C/C3[C@@H](C(C)C)CC=C(C)[C@@H]3CC(OC(=O)/C=C/c3cn(C)cn3)[C@]3(C)C=C[C@@]2(O)O3)OCC(O)C1O (some centres not stated)")
"> 50 µM"
>>> measured("CC(C)NC(=O)OCc1c(COC(=O)NC(C)C)c(-c2ccc[n+](COC(=O)C3CCCCC3)c2)n2c1CCC2")
"87.4 µM"
>>> measured("Cc1ccc(-n2cc(-c3ccc(Cl)cc3)c3c(NNC(=S)NCc4ccccc4)ncnc32)cc1")
"64.8 µM"
>>> measured("COc1ccc(-c2nccn2-c2cc(OC)c(OC)c(OC)c2)cc1")
"24.1 µM"
>>> measured("CC(C)OP(=O)(OC(C)C)c1ncn(-c2ccc([N+](=O)[O-])cc2)n1")
"> 100 µM"
>>> measured("O=C(CSCC(=O)N/N=C\\c1cc(Br)cc(Br)c1O)N/N=C\\c1cc(Br)cc(Br)c1O")
"39.7 µM"
>>> measured("CCCC1C2=C(C(=O)OC2=O)C2C(CC)CC3=C(C(=O)OC3=O)C12 (configuration not stated)")
"> 100 µM"
>>> measured("Cc1cccc2ns[s+]c12")
"> 100 µM"
>>> measured("CCCCc1ccc(C(N)=O)nc1")
"> 100 µM"
>>> measured("COC(=O)c1c(OC(=O)c2ccccc2)noc1CC(=O)OC1C=CCCC1 (configuration not stated)")
"> 100 µM"
>>> measured("N#C/C(=C/NC(=S)Nc1ccc(S(N)(=O)=O)cc1)C(N)=O")
"> 100 µM"
>>> measured("C[Si](C)(C)C1=C2C(=O)c3ccccc3C(=O)C2=C([Si](C)(C)C)[C@@H]2CCCC[C@H]12")
"> 100 µM"
>>> measured("COC(=O)C(I(OS(=O)(=O)c1ccc(C)cc1)c1ccccc1)=P(c1ccccc1)(c1ccccc1)c1ccccc1")
"35.1 µM"
>>> measured("N#Cc1ccc(NC(=NCC(=O)O)Nc2ccc3ccccc3c2)cc1")
"> 10 µM"
>>> measured("Cc1ccc(SCN2CCCCC2)cc1 (tested in a mixture with another compound)")
"27.7 µM"
>>> measured("NCCN.O=N[O-].O=N[O-].O=N[O-].O=N[O-].[Co+3].[K+]")
"> 100 µM"
>>> measured("COc1cc(C2c3cc4c(c(O)c3C(=O)C3CCC(=O)N32)OCO4)cc(OC)c1OC (configuration not stated)")
"> 100 µM"
>>> measured("CCCCCCn1c(=N)n(CC(O)COc2cccc(C)c2)c2ccccc21 (configuration not stated)")
"4.97 µM"
>>> measured("COc1cccc2c(NNc3ccc(Cl)cc3)c3ccc([N+](=O)[O-])cc3nc12")
"26.3 µM"
>>> measured("CC(C)(C)OC(=O)NCCNC(=O)OCc1ccccc1")
"> 100 µM"
>>> measured("CCC1OC(=O)C(C)C(OC2CC(C)(O)C(O)C(C)O2)C(C)C(O)C(C)(O)CC(C)C(=O)C(C)C(O)C1C (configuration not stated)")
"> 300 µM"
>>> measured("COC(=O)C1CCC2(CC1)NC(=O)NC2=O (configuration not stated)")
"> 100 µM"
>>> measured("O=C(Cc1nc2ccccc2s1)C(=O)Nc1ccccc1C(F)(F)F")
"> 100 µM"
>>> measured("O=C(O)CCCCCNC(=O)CCC(CN(CC(=O)OCc1ccccc1)CC(=O)OCc1ccccc1)N(CC(=O)OCc1ccccc1)CC(=O)OCc1ccccc1 (configuration not stated)")
"30.4 µM"
>>> measured("CCc1cccc(C(C)C)c1C1C(=O)C(=O)N(c2nc3ccccc3s2)C(=O)C1=O")
"> 100 µM"
>>> measured("N#Cc1ccc(/C=C2\\Cc3ccccc3C2=O)cc1")
"> 100 µM"
>>> measured("Cc1ccc(S(=O)(=O)c2ccccn2)cc1")
"> 100 µM"
>>> measured("Cc1nn(C(=O)CC(=O)Nc2ccccc2Cl)c(C)c1N=Nc1ccccc1Cl")
"> 100 µM"
>>> measured("COc1ccc(C2CC(c3cccc(Nc4ccnc5cc(Cl)ccc45)c3)=NN2c2ccc(Cl)cc2)cc1 (configuration not stated)")
"13.3 µM"
>>> measured("Nc1c2ccccc2nc2ccc(C(=O)Nc3ccc(S(N)(=O)=O)cc3)cc12")
"> 100 µM"
>>> measured("O=[N+]([O-])c1ccc(-c2ccc(C3=Nn4c(nnc4-c4ccc(Cl)cc4)SC3)o2)cc1")
"> 100 µM"
>>> measured("C/C(=C1/N=C(c2ccccc2)OC1=O)c1cccs1")
"> 100 µM"
>>> measured("Cn1cnc2nc(Cl)nc(Cl)c21")
"19.7 µM"
>>> measured("CSc1nc(Cl)c2c(n1)Sc1ncnn1C2O (configuration not stated)")
"26.3 µM"
>>> measured("Cc1nn(-c2ccccc2)c2ncc3c(c12)C(=O)N(Cc1ccccc1)C3=O")
"> 100 µM"
>>> measured("Cc1nc2c(=O)n(C)c(=O)nc-2n(-c2ccc(Cl)cc2)c1C")
"> 100 µM"
>>> measured("CCOC(=O)C1(C/C=C\\CBr)CCCCCCC1=O (configuration not stated)")
"> 100 µM"
>>> measured("CC(=O)NC(Cc1ccccc1)C(=S)N1CCCC1 (configuration not stated)")
"> 100 µM"

----------
# System: HCT-15 colon
# Assay Procedure: NCI tumour cell line growth inhibition, 48 h
Parameter Measured: TGI

>>> measured("CSc1nc(Cl)c2c(n1)Sc1ncnn1C2O (configuration not stated)")
"18.4 µM"
>>> measured("CCN(CC)CCCC(C)NC(=S)N/N=C(\\C)c1ccccn1 (configuration not stated)")
"> 100 µM"
>>> measured("COc1cc2c(c(OC)c1OC)-c1c(c3ccc([N+](=O)[O-])cc3c(=O)n1CCCN=[N+]=[N-])C2=O")
"> 100 µM"
>>> measured("Cc1nc2c(=O)n(C)c(=O)nc-2n(-c2ccc(Cl)cc2)c1C")
"> 100 µM"
>>> measured("COc1cc(C2c3cc4c(c(O)c3C(=O)C3CCC(=O)N32)OCO4)cc(OC)c1OC (configuration not stated)")
"> 100 µM"
>>> measured("Nc1nc(NC(=O)C2=NS(=O)(=O)c3cc(S(N)(=O)=O)c(Cl)cc3N2)n[nH]1")
"> 100 µM"
>>> measured("CNCc1ccc(C)c(NC(=O)c2ccc(Nc3nc(-c4ccccc4)c4ccccc4n3)cc2)c1")
"3.35 µM"

----------
# System: ACHN renal
# Assay Procedure: NCI tumour cell line growth inhibition, 48 h
Item-by-item account of TGI
Parameter Measured: TGI (µM)

>>> measured("O=C1/C(=C/c2ccc([N+](=O)[O-])s2)Oc2ccc(Cl)cc21")
0.595
>>> measured("O=c1[nH]c2cccccc-2c1-c1nc2ccccc2[nH]1")
51.6
>>> measured("COc1cccc2c(NNc3ccc(Cl)cc3)c3ccc([N+](=O)[O-])cc3nc12")
22.4
>>> measured("Cc1ccc(CCNC(=S)SCC(NC(=O)CCC(N)C(=O)O)C(=O)NCC(=O)O)cc1 (stereo unspecified)")
4.17
>>> measured("Cn1cnc2nc(Cl)nc(Cl)c21")
18.5
>>> measured("CN1CCN(Cc2ccc(NC(=O)c3cncc(C#Cc4c(N)ncc5ccc(F)cc45)c3)cc2C(F)(F)F)CC1")
1.27
>>> measured("COc1ccc(C(=O)CC(Cl)=C(Cl)Cl)cc1")
41.4

----------
# Tested on: MOLT-4 leukemia
# Assay Procedure: NCI tumour cell line growth inhibition, 48 h
Parameter Measured: TGI (µM)

>>> measured("CC1CCCC2(O1)OC1CC(=O)OC1C1=C2C(=O)c2ccccc2C1=O (stereo not given)")
4.09
>>> measured("Cn1cc(C2=C(c3cn(CCCSC(=N)N)c4ccccc34)C(=O)NC2=O)c2ccccc21")
8.08
>>> measured("Cc1ccc(CCNC(=S)SCC(NC(=O)CCC(N)C(=O)O)C(=O)NCC(=O)O)cc1 (stereo not given)")
3.93

----------
# Tested on: SK-MEL-28 melanoma
# Assay Procedure: NCI tumour cell line growth inhibition, 48 h
Parameter Measured: TGI

>>> measured("Cc1[nH]c(=O)nc2c1C(=O)N(C(C)C)C(NC(C)C)S2 (stereo not given)")
"> 100 µM"
>>> measured("COc1cc(/C=C/C(=O)C(C)(C)C)cc(OC)c1OC")
"> 100 µM"
>>> measured("COc1ccc(/C=C(\\NC(=O)c2ccccc2)c2nc3ccccc3[nH]2)cc1")
"37.5 µM"
>>> measured("COc1ccc(C2CC(c3cccc(Nc4ccnc5cc(Cl)ccc45)c3)=NN2c2ccc(Cl)cc2)cc1 (stereo not given)")
"66.9 µM"
>>> measured("CC[N+]1(C)CCC(O)(/C=C/c2ccccc2)C(C(=O)/C=C/c2ccccc2)C1 (stereo not given)")
"18.9 µM"
>>> measured("Cn1c(N)c(N=Nc2ccc(S(N)(=O)=O)cc2)c(=O)n(C)c1=O")
"> 100 µM"
>>> measured("CCS(=O)(=O)Nc1ccc(Oc2ccc(F)cc2F)c(-c2cn(C)c(=O)c3[nH]ccc23)c1")
"21 µM"
>>> measured("CN(C)CCCNc1ccc2nnn3c4ccc([N+](=O)[O-])cc4c(=O)c1c23")
"17.2 µM"
>>> measured("CCOC(=O)C1(C/C=C\\CBr)CCCCCCC1=O (stereo not given)")
"> 100 µM"
>>> measured("O=C(C(Cl)=C(Nc1ccccc1)Nc1ccccc1)C(Cl)Cl")
"> 100 µM"
>>> measured("Oc1ccc(-c2nc(-c3ccc4oc5ccc(-c6[nH]c(-c7ccc(O)cc7)nc6-c6ccccc6)cc5c4c3)c(-c3ccccc3)[nH]2)cc1")
"40 µM"
>>> measured("NCCN.O=N[O-].O=N[O-].O=N[O-].O=N[O-].[Co+3].[K+]")
"> 100 µM"
>>> measured("Cn1cc(C2=C(c3cn(CCCSC(=N)N)c4ccccc34)C(=O)NC2=O)c2ccccc21")
"4.48 µM"
>>> measured("Nc1nc(NC(=O)C2=NS(=O)(=O)c3cc(S(N)(=O)=O)c(Cl)cc3N2)n[nH]1")
"> 100 µM"
>>> measured("C/C(=C1/N=C(c2ccccc2)OC1=O)c1cccs1")
"> 100 µM"
>>> measured("N#Cc1ccc(/C=C2\\Cc3ccccc3C2=O)cc1")
"> 100 µM"
>>> measured("Cc1c2cccc-2c(N(C)C)cc2c1[nH]c1ccccc12")
"6.84 µM"
>>> measured("COc1ccc(-c2nccn2-c2cc(OC)c(OC)c(OC)c2)cc1")
"> 100 µM"
>>> measured("Cc1cc(C)n(CN(Cn2nc(C)cc2C)c2ccc(N(Cn3nc(C)cc3C)Cn3nc(C)cc3C)cc2)n1")
"37.1 µM"
>>> measured("O=C(CSCC(=O)N/N=C\\c1cc(Br)cc(Br)c1O)N/N=C\\c1cc(Br)cc(Br)c1O")
"> 100 µM"
>>> measured("Cc1ccc(S(=O)(=O)c2ccccn2)cc1")
"> 100 µM"
>>> measured("O=C(/C=C/CN1CCCCC1)Nc1cc2c(Nc3ccc(F)c(Cl)c3F)ncnc2cc1OCCOC(F)F")
"9.19 µM"
>>> measured("CCCCCCn1c(=N)n(CC(O)COc2cccc(C)c2)c2ccccc21 (stereo not given)")
"3.51 µM"
>>> measured("C/C=C\\C(C)=C/C(C)C(=O)CC(O)CC1CC(=O)NC(=O)C1 (stereo not given)")
"> 100 µM"
>>> measured("O=S(=O)(N1CCCCN(S(=O)(=O)C(F)(F)F)CCCN(S(=O)(=O)C(F)(F)F)CCCN(S(=O)(=O)C(F)(F)F)CCCCN(S(=O)(=O)C(F)(F)F)CCCN(S(=O)(=O)C(F)(F)F)CCC1)C(F)(F)F")
"> 100 µM"
>>> measured("C[C@H]1C(=O)C2=C[C@H]1CCC(=O)[C@]1(C)CCCC(C)(C)[C@H]1C[C@H]2O")
"> 100 µM"
>>> measured("CCCC1C2=C(C(=O)OC2=O)C2C(CC)CC3=C(C(=O)OC3=O)C12 (stereo not given)")
"> 100 µM"
>>> measured("COc1ccc(/C=C2\\CN(Cc3cn(CCCNc4ccnc5cc(Cl)ccc45)nn3)C/C(=C\\c3ccc(OC)cc3)C2=O)cc1")
"28 µM"
>>> measured("O=C(N/N=C/c1cc(-c2ccccc2Cl)c(-c2ccccc2Cl)o1)c1ccncc1")
"> 100 µM"
>>> measured("Nc1cc2[nH]c(=O)c3cc(Cl)ccc3c2cc1Cl")
"> 100 µM"
>>> measured("CN(C)CCCn1c2c(c3ccncc3c1=O)C(=O)c1ccccc1-2")
"4.7 µM"
>>> measured("COC[C@@H](N=Cc1ccc(OC)cc1)C(C)C")
"> 100 µM"
>>> measured("COc1ccc(/C=C2\\CC(C)CC3C2=NN(C(C)=O)C3c2ccc(OC)c(OC)c2)cc1OC (stereo not given)")
"46.9 µM"
>>> measured("COc1cccc(C(=O)C(O)c2cccc(OC)c2OC)c1OC (stereo not given)")
"> 100 µM"
>>> measured("S=C(N/N=C/c1ccccc1)NC1CC(c2ccccc2)Oc2ccccc21 (stereo not given)")
"> 100 µM"
>>> measured("CCCCCCc1cc2cc(C(=O)Nc3cccc(C(F)(F)F)c3)c(=N)oc2cc1O")
"27.6 µM"
>>> measured("CCOc1ccccc1Nc1nc(C)c(C(=O)CC(=O)C(=O)Nc2ccccc2)s1")
"> 100 µM"
>>> measured("CC(C)NC(=O)OCc1c(COC(=O)NC(C)C)c(-c2ccc[n+](COC(=O)C3CCCCC3)c2)n2c1CCC2")
"> 100 µM"
>>> measured("COc1cc(OC)c(-c2oc3ccccc3c(=O)c2O)c(OC)c1")
"> 100 µM"
>>> measured("COc1c(C)cnc(Cn2cnc3c(Cl)nc(N)nc32)c1C")
"> 83.4 µM"
